In this section we review reported TGI values for a set of molecules.
Test system: RXF 393 renal
test: NCI tumour cell line growth inhibition, 48 h

Example molecules with recorded TGI:
* Cc1cccc(N=Nc2c(C)nn(C(=O)CC(=O)Nc3ccc(Cl)cc3)c2C)c1 | > 100 µM
* CCOC(=O)Cc1csc(NC(=O)C(OC(=O)c2ccc(Cl)cc2)c2ccccc2)n1 (stereo not given) | 95.8 µM
* Oc1nc(N2CCOCC2)sc1/C=C1\C=Nc2ccccc21 | > 100 µM
* C[C@@H]1CC[C@@]2(C)OC(c3ccccc3)[C@H](CO)N2C1=O (stereo not given in full) | > 100 µM

Attention now turns to another entry.
IN: For CCCCCCCCCCCCCCCCc1c(C(=O)OC)nc(NC#N)[nH]c1=O , what is its reported TGI?
OUT: > 25 µM

###

In this section we review reported TGI values for a set of molecules.
Test system: UO-31 renal
test: NCI tumour cell line growth inhibition, 48 h

* Brc1ccc(-c2[nH]c3ccccc3c2/C=N\Nc2ccc(-c3nc4ccccc4[nH]3)cc2)cc1 | > 100 µM
* COc1cc(/C=N/NC(=O)c2c(Cl)c(Cl)c(Cl)c(Cl)c2-c2nc3ccc(C(=O)c4ccccc4)cc3[nH]2)ccc1O | > 100 µM
* N#CC(O)CCOCc1ccccc1 (stereo not given) | > 100 µM
* COc1ccc(C2(Cl)C(Cl)(C(F)(F)F)C2(Cl)C(F)(F)F)cc1 (stereo not given) | 29.5 µM
* Cn1cnc([N+](=O)[O-])c1S(=O)(=O)Oc1ccc(Cl)cc1 | 8.75 µM
* COC(=O)CN(CC(=O)NCCNC(=O)OC(C)(C)C)C1CCCCC1N(CC(=O)OC)CC(=O)OC (stereo not given) | > 100 µM

IN: Give recorded TGI with UO-31 renal for the following molecule: COc1ccc(OC2(c3cc(OC)ccc3OC)OC(=O)c3ccccc32)cc1 (stereo not given)
OUT: > 100 µM

IN: Give recorded TGI with UO-31 renal for the following molecule: O=c1[nH]c(-c2ccc(Cl)c(Cl)c2)cn1-c1ccc(Cl)cc1
OUT: 60.5 µM

IN: Give recorded TGI with UO-31 renal for the following molecule: CC(=O)NC(CCCNC(=O)N(C)N=O)C(=O)NCc1ccccc1 (stereo not given)
OUT: > 100 µM

IN: Give recorded TGI with UO-31 renal for the following molecule: C[C@]12CC[C@H]3[C@@H](CC=C4C[C@@H](O)CC[C@@]43C)[C@@H]1C/C(=C\c1ccncc1)[C@@H]2O
OUT: > 100 µM

###

In this section we review reported TGI values for a set of molecules.
Tested on: SF-295 CNS
test: NCI tumour cell line growth inhibition, 48 h

Example molecules with recorded TGI:
* Cc1nc2ccc(Cl)cc2c2c1CCN2c1ccc(F)cc1 | > 100 µM
* O=C1OC(c2ccc(O)cc2)(c2ccc(O)cc2)c2ccc(Cl)c3cccc1c23 (tested in a mixture with another compound) | 25.2 µM
* CCCC(=O)OCC1OC(n2cc(F)c(=O)[nH]c2=O)C(F)C1O (stereo not given) | > 100 µM

IN: For CC(=O)OCC1OC(SC2=N/C(=C\c3ccc(Br)s3)C(=O)N2c2ccccc2)C(OC(C)=O)C(OC(C)=O)C1OC(C)=O (stereo not given) , what is its reported TGI?
OUT: > 100 µM

IN: For Cc1cc(C)c(/C=C2\C(=O)Nc3ccccc32)[nH]1 , what is its reported TGI?
OUT: > 100 µM

###

System: SK-MEL-2 melanoma
test: NCI tumour cell line growth inhibition, 48 h
In this section we review reported TGI values for a set of compounds.

Example compounds with recorded TGI:
* CCOc1ccccc1/C=N\N=C(N/N=C/c1ccccc1OCC)N/N=C/c1ccccc1OCC | > 100 µM
* COc1ccc(C(=O)/C=C/c2cc(-c3ccc(OC)c(OC)c3)n[nH]2)cc1OC | 5.17 µM
* Cn1c(=O)c2c(nc3n2CCCC(=O)N3CCCCl)n(C)c1=O | > 100 µM

IN: For CC(C)CNC1=NCC(C)S1 (centres undefined) , what is its reported TGI?
OUT: > 100 µM

###

Test system: EKVX NSCLC
test: NCI tumour cell line growth inhibition, 48 h; in the data active means GI50 below about 0.43 µM; inactive means the rest
Please state which outcome applies, choosing from active, inactive

* CCCCN(CCCC)P(=O)(Oc1ccccc1)Oc1ccccc1 | inactive
* Clc1ccc(-c2cnc3c(-c4ccnc(N5CCNCC5)c4)cnn3c2)cc1 | inactive
* c1cc(OCCN2CCCC2)ccc1CNc1ccc2nc(CCC3CCCCC3)[nH]c2c1 | inactive

Next item in the queue.
IN: Hey, what did the test say about CCOc1ccc(-c2nc3ccc(-c4nc5ccc(N6CCN(C)CC6)cc5[nH]4)cc3[nH]2)cc1 ?
OUT: inactive

###

Tested on: MOLT-4 leukemia
test: NCI tumour cell line growth inhibition, 48 h
parameter: TGI

• NC(=O)c1ncn(C2C=CC(CP(=O)(O)O)C2)c1N (stereo not given) = > 100 µM

IN: For CCCCCCOC(=O)CC1=C(C)/C(=C/c2[nH]c(-c3ccc[nH]3)cc2OC)N=C1C , what is its reported TGI?
OUT: 1.46 µM

IN: For CC1(O)CC2C(CC1SC1CC3C(CC1(C)O)C3(C)C)C2(C)C (stereo not given) , what is its reported TGI?
OUT: > 100 µM

IN: For COc1ccc(C)c2sc(N(Cc3cccnc3)C(=O)c3ccc(C#N)cc3)nc12 , what is its reported TGI?
OUT: > 100 µM

IN: For FC(F)(F)c1ccc2c(-c3cc[nH]c3)ccnc2c1 , what is its reported TGI?
OUT: 59.3 µM

IN: For C/C(=N\O)c1ccc(OCc2cc(C(F)(F)F)cc(C(F)(F)F)c2)cc1 , what is its reported TGI?
OUT: 68.5 µM

IN: For O=c1[nH]c2nc3ccccc3c(=O)n2/c1=C/c1ccccc1 , what is its reported TGI?
OUT: > 100 µM

IN: For C/C(O)=C(/C=N/C(=S)Nc1ccccc1)C(=O)Nc1ccccc1C , what is its reported TGI?
OUT: > 100 µM

IN: For O=C(N/C(=C\c1ccccc1)c1nc2ccccc2c(=O)o1)c1ccccc1 , what is its reported TGI?
OUT: > 100 µM

IN: For CC(=O)OCC1OC(SC2=N/C(=C\c3ccc(Br)s3)C(=O)N2c2ccccc2)C(OC(C)=O)C(OC(C)=O)C1OC(C)=O (stereo not given) , what is its reported TGI?
OUT: > 100 µM

###

Tested on: HOP-92 NSCLC
test: NCI tumour cell line growth inhibition, 48 h; in the data active = GI50 below about 0.43 µM; inactive = the rest
Please state which outcome applies, choosing from active, inactive

Worked cases, answers included:
- CCn1nc(C2CCN(C(=O)CCO)CC2)nc1-c1cnc(N)c(-c2nnc(C(C)(C)C)o2)n1: active
- CCc1cc2c(c(OCC(F)(F)F)c(C(=O)NC3CCN(C(=O)CO)CC3)n2C)c(=O)n1CC(=O)c1ccccc1: inactive
- CCOC(=O)c1ccc(N2NC(=O)/C(=C/c3ccc([N+](=O)[O-])o3)C2=O)cc1: inactive
- Cn1cnc([N+](=O)[O-])c1S(=O)(=O)Oc1ccc(Cl)cc1: inactive
- OCC1OC(N2C=C(c3nc4ccccc4s3)C3C=CC=CC32)C(O)C(O)C1O (stereo unspecified): inactive
- CC(C)(C)c1cc(C[P+](c2ccccc2)(c2ccccc2)c2ccccc2)cc(C(C)(C)C)c1O: active
- Cc1cc(-c2nc3sc(C)cn3c2/C=N/N=C(N)N)c(C)s1: inactive
- CCCCCCOC(=O)CC1=C(C)/C(=C/c2[nH]c(-c3ccc[nH]3)cc2OC)N=C1C: active

IN: Hey, what did the test say about c1cc(OCCN2CCCC2)ccc1CNc1ccc2nc(CCC3CCCCC3)[nH]c2c1 ?
OUT: inactive

IN: Hey, what did the test say about O=C(COc1ccccc1)NNc1ccccc1 ?
OUT: inactive

IN: Hey, what did the test say about O=C(Nc1ccc(Cl)c(C(F)(F)F)c1)Nc1ccc(-c2cccnc2)cc1N1CCC(CO)CC1 ?
OUT: inactive

IN: Hey, what did the test say about Cc1[nH]c(C(=O)Nc2ccc(C(=O)NCCN)cc2OC(C)C)c(Cl)c1Cl ?
OUT: inactive

IN: Hey, what did the test say about OCc1ccc(-c2nc(-c3ccc4c(c3)OCO4)c(-c3ccccn3)[nH]2)cc1 ?
OUT: inactive

IN: Hey, what did the test say about CCOC(=O)Cc1csc(NC(=O)C(OC(=O)c2ccc(Cl)cc2)c2ccccc2)n1 (stereo unspecified) ?
OUT: inactive

IN: Hey, what did the test say about COc1cc2c3c(n(CCCN=[N+]=[N-])c(=O)c2cc1OC)-c1ccc([N+](=O)[O-])cc1C3=O ?
OUT: inactive

IN: Hey, what did the test say about COc1cc(OC)c(C(=O)/C=C/c2ccc(C#N)cc2)c(OC)c1 ?
OUT: inactive

IN: Hey, what did the test say about COc1ccc(C(=O)/C=C/c2cc(-c3ccc(OC)c(OC)c3)n[nH]2)cc1OC ?
OUT: inactive

IN: Hey, what did the test say about Cc1nnn(C)c1-c1cnc2c3ccc(C(C)(C)O)cc3n([C@H](c3ccccc3)C3CCOCC3)c2c1 ?
OUT: active

IN: Hey, what did the test say about CCCCCN(CCCCC)CCC[C@@H](C)[C@H]1CC[C@H]2[C@@H]3[C@H](OCCCN)C[C@@H]4C[C@H](OCCCN)CC[C@]4(C)[C@H]3C[C@H](OCCCN)[C@]12C ?
OUT: inactive

IN: Hey, what did the test say about COc1ccc(C)c2sc(N(Cc3cccnc3)C(=O)c3ccc(C#N)cc3)nc12 ?
OUT: inactive

IN: Hey, what did the test say about COc1cccc(/C=N\NC(=O)c2ccncc2)c1O ?
OUT: inactive
